src = patent US6737383B1

test system: corn; assay: Test B pre/postemergence corn; type: in vivo, Zea mays; details: Preemergence, Rate 62 g/ha; scale 0 to 10 (0 no effect, 10 complete control)
Would you kindly list Plant response rating, Corn for each of these compounds?
Give bare numbers.

Worked examples, 5 compounds total:
| Compound | Plant response rating, Corn |
| --- | --- |
| CC(C)N(C(=O)n1oc(=O)n(C(C)CCl)c1=O)c1ccccc1 (stereo not drawn) | 0 |
| CSCCn1c(=O)on(C(=O)N(c2ccccc2)C(C)C)c1=O | 0 |
| CC(C)N(C(=O)n1oc(=O)n([C@@H]2C[C@H]2C)c1=O)c1ccc(F)cc1 (relative stereo) | 0 |
| CC(C)N(C(=O)n1oc(=O)[nH]c1=O)c1ccc(F)cc1F | 0 |
| CC(C)N(C(=O)n1oc(=O)n(CCC#N)c1=O)c1ccc(F)cc1F | 0 |

Could you now consider this next compound?
Please give the measured Plant response rating, Corn for this compound: CCC(CC)n1c(=O)on(C(=O)N(c2ccc(F)cc2F)C(C)C)c1=O 0

###

tested on: bedstraw; test: Test B pre/postemergence bedstraw; assay type: in vivo, Galium aparine; conditions: Preemergence, Rate 500 g/ha; scale of 0 to 10 where 0 is no effect and 10 is complete control
Would you kindly list Bedstraw plant response rating for each of these compounds?
Numbers only.

Would you mind giving Bedstraw plant response rating for every compound in the list below?
1. Cc1ccccc1-n1c(=O)on(C(=O)N(c2ccncc2)C(C)C)c1=O
2. CC(C)N(C(=O)n1oc(=O)n(CCCC(F)(F)F)c1=O)c1ccc(Cl)cc1
3. CC(=O)NCn1c(=O)on(C(=O)N(c2ccccc2)C(C)C)c1=O
4. CCC(CC)n1c(=O)on(C(=O)N(c2ccc(F)cc2F)C(C)C)c1=O

1: 0; 2: 0; 3: 0; 4: 3

###

test system: crabgrass; experiment: Test B pre/postemergence crabgrass; assay type: in vivo, Digitaria sanguinalis; settings: Postemergence, Rate 500 g/ha; scale of 0 to 10 where 0 is no effect and 10 is complete control
Parameter Measured: Crabgrass plant response rating
Give bare numbers.

| Compound | Parameter Measured | Assay Result |
| --- | --- | --- |
| CC(C)N(C(=O)n1oc(=O)n(Cc2cnc(Cl)s2)c1=O)c1ccc(F)cc1 | Crabgrass plant response rating | 3 |
| CC(C)N(C(=O)n1oc(=O)n(C(C)CCl)c1=O)c1ccccc1 (stereo not drawn) | Crabgrass plant response rating | 8 |
| CC(C)N(C(=O)n1oc(=O)n(CC2=NOCCC2)c1=O)c1ccccc1 | Crabgrass plant response rating | 9 |

Would you mind giving Crabgrass plant response rating for every compound in the list below?
1. CC(C)N(C(=O)n1oc(=O)n(C(C)C#N)c1=O)c1ccc(Cl)cc1 (stereo not drawn)
2. C=CC[Si](C)(C)Cn1c(=O)on(C(=O)N(c2ccc(Cl)cc2)C(C)C)c1=O
3. CC(C)N(C(=O)n1oc(=O)n(CCCC(F)(F)F)c1=O)c1ccc(F)cc1

6
9
9

###

tested on: blackgrass; experiment: Test B pre/postemergence blackgrass; format: in vivo, Alopecurus myosuroides; settings: Preemergence, Rate 62 g/ha; scale 0 to 10 (0 no effect, 10 complete control)
Parameter Measured: Plant response rating, Blackgrass
Give bare numbers.

| Molecule | Plant response rating, Blackgrass |
| --- | --- |
| CC(C)N(C(=O)n1oc(=O)n(CC#N)c1=O)c1ccc(F)cc1F | 0 |
| CC(C)N(C(=O)n1oc(=O)n(CC2=NOCCC2)c1=O)c1ccccc1 | 0 |
| COCC(C)n1c(=O)on(C(=O)N(c2ccc(F)cc2F)C(C)C)c1=O (stereo not shown) | 9 |
| CCC(CC)n1c(=O)on(C(=O)N(c2ccc(F)cc2F)C(C)C)c1=O | 2 |
| CC(C)N(C(=O)n1oc(=O)n(C)c1=O)c1ccccc1 | 4 |
| CC(C)N(C(=O)n1oc(=O)n([C@@H]2C[C@H]2C)c1=O)c1ccc(F)cc1 (relative stereo) | 6 |

Please give the measured Plant response rating, Blackgrass for this molecule: CC(C)N(C(=O)n1oc(=O)n(CCl)c1=O)c1ccc(Cl)cc1 0
